// data source = the RNAGym collection of RNA variant scans (doi:10.7554/elife.80360)

Listed here are variants together with their documented self-cleavage.
B1: Hairpin Ribozyme (parent)
chain: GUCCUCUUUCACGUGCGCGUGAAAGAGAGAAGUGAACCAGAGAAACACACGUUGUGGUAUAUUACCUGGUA

Variants of: B1
Assay: self-cleavage, relative activity (ratio to wild type); higher = more cleavage; co-transcriptional
RECORDED_ENDPOINT: self-cleavage

>>> result_number("A22G G56U")
0.0693
>>> result_number("A61C G68U")
0.278
>>> result_number("U7G G34U")
1.22
>>> result_number("C3G U9G")
0.0419
>>> result_number("G17U U33C")
0.0633
>>> result_number("G51U A59U")
0.0798
>>> result_number("C12U G15A")
0.687
>>> result_number("G21C G51A")
0.914
>>> result_number("G54A A64G")
0.403
>>> result_number("G19C U58A")
0.569
>>> result_number("A24C A44C")
0.0908
>>> result_number("G56A A61G")
0.2
>>> result_number("G21C U62G")
0.216
>>> result_number("G1A A35U")
0.142
>>> result_number("G13U A44C")
0.0986
>>> result_number("U8A U70C")
0.816
>>> result_number("A41C C50A")
0.634
>>> result_number("U33A A45U")
0.2
>>> result_number("U8A G15U")
0.888
>>> result_number("C37U A41C")
0.567
>>> result_number("C6U C50A")
0.24
>>> result_number("G19U A24C")
0.79
>>> result_number("U33G U52A")
0.17
>>> result_number("U5C G17U")
0.794
>>> result_number("U5A C37G")
0.18
